- Assay protocol: reversal of MRP1-mediated doxorubicin resistance, pilot screen, H69AR cells, doxorubicin co-treatment (AID 601)
- Reported conditions: H69AR cells + 2 uM doxorubicin, CellTiter-Glo, 72 h; at 10 µM; active compounds read high
Lab note - cut at -20% for differential viability (reversal): rule met if strictly below, rule not met if not.

> print(dat)
                                   molecule           cat
1  Cc1cc(C)c2[nH]c(=O)c(C(c3nnnn3Cc3ccc4c(c3)OCO4)N3CCC(C)CC3)cc2c1 (stereo unspecified)  rule not met
2  Cc1nnc(SCC(=O)N2CCC(C(=O)Nc3nccs3)CC2)n1Cc1ccccc1  rule not met
3            Cc1c(C(=O)Nc2cnccn2)oc2ccccc12      rule met
4  CNC(=O)CN(c1cc(C)ccc1OC)S(=O)(=O)c1ccc(C)cc1  rule not met
5              CCOC(=O)c1sc2nc(C)cc(C)c2c1N  rule not met

Query string: Consider `Cn1c(SCC(=O)N2CCN(c3cccc(Cl)c3)CC2)nnc1-c1ccncc1` . Does its differential viability (reversal) lie strictly below -20%?
Result string: rule not met

Query string: Consider `Cc1ccc(Cn2ncc3c(NCCCN4CCOCC4)ncnc32)cc1` . Does its differential viability (reversal) lie strictly below -20%?
Result string: rule not met

Query string: Consider `COc1ccc(C(NC(=O)C(C)(C)C)NC(=O)C(C)(C)C)cc1` . Does its differential viability (reversal) lie strictly below -20%?
Result string: rule not met

Query string: Consider `O=C(c1ccc2c(c1)OCCO2)C1CCN(C(=O)c2ccc(F)cc2)CC1` . Does its differential viability (reversal) lie strictly below -20%?
Result string: rule not met

Query string: Consider COc1cc(C2=NOC(C(=O)NCc3ccc(F)cc3)C2)cc(OC)c1OC (stereo unspecified) . Does its differential viability (reversal) lie strictly below -20%?
Result string: rule met

Query string: Consider `C/C(=C\c1cc(C(=O)O)c(C)o1)CO` . Does its differential viability (reversal) lie strictly below -20%?
Result string: rule not met
